- Tested On: T1, Notch2Long (Notch2 EGF6-EGF12) (human, UniProt Q04721 219-418, biotin on the N-terminal Avi tag (enzymatic))
- T1 construct: also called N2L protein; hNotch2; not shown: Avi tag, N-terminal, kept
- T1 sequence (looked up): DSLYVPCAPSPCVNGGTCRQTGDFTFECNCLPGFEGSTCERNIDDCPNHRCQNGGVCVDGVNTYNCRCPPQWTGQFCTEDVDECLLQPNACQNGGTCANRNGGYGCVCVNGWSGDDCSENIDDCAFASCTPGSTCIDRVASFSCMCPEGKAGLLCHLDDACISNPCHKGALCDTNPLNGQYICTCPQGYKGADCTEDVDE
- Assay: ELISA
- Condition Description: one partner purified

>  <Binder>
GCIKSHLWCPKTSDCEAGCICEVWIQCG (designed binder) [N2L.EET31.43.24 displayed on M13 phage (p3)]

>  <s/n Ratio>
10.5

$$$$
>  <Binder>
GCIKSHLWCPRDSDCLAGCVCEVWIQCG (designed binder) [N2L.EET31.32.13 displayed on M13 phage (p3)]

>  <s/n Ratio>
10.2

$$$$
>  <Binder>
GCIRSHLWCPPSASCLAGCVCEVWIQCG (designed binder) [N2L.EET31.32.70 displayed on M13 phage (p3)]

>  <s/n Ratio>
7.3

$$$$
>  <Binder>
GCIKSHLWCPPPRRCEAGCICEVWIQCG (designed binder) [N2L.EET31.43.35 displayed on M13 phage (p3)]

>  <s/n Ratio>
11.6

$$$$
>  <Binder>
GCIKSHLWCDPRKSCEAGCICEVWIQCG (designed binder) [N2L.EET31.43.88 displayed on M13 phage (p3)]

>  <s/n Ratio>
10.2

$$$$
>  <Binder>
GCIKSHLWCDPRKDCEAGCICEVWIQCG (designed binder) [N2L.EET31.43.75 displayed on M13 phage (p3)]

>  <s/n Ratio>
10.3

$$$$
>  <Binder>
GCIKSHLWCPPSDYCLAGCVCEVWIQCG (designed binder) [N2L.EET31.32.21 displayed on M13 phage (p3)]

>  <s/n Ratio>
9.1

$$$$
